Data provenance: patent US20200339692A1

Molecular target: human PD-L1 (ligand blocking test) (human, UniProt Q9NZQ7 19-238, limits assumed)
Sequence (Q9NZQ7 19-238 limits assumed): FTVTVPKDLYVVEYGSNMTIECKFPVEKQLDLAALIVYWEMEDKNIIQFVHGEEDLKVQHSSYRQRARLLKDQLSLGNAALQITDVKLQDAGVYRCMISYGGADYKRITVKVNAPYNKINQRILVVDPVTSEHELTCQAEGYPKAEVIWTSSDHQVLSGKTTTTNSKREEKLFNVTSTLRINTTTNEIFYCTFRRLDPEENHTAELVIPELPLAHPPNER
Test: blocking of B7-1 binding to human PD-L1, PD-L1 1 ug/ml; competitor B7-1
Each entry below carries its recorded IC50.

## Task Find the recorded IC50 belonging to H12L64 (antibody, human IgG1, kappa, V domains shown, from the HRP00052 mutant library; also called 24D5 H12 and 24D5 L64) VH: QVQLVQSGAEVKKPGASVKVSCKASGYTFTSYWMHWVRQAPGQGLEWMGRITPSSGFAMYNEKFKNRVTMTRDTSTSTVYMELSSLRSEDTAVYYCARGGSSYDYFDYWGQGTTVTVSS VL: DIVLTQSPASLAVSPGQRATITCRASESVSIHGTHLMHWYQQKPGQPPKLLIYVASYAASGVPARFSGSGSGTDFTLTINPVEAEDTANYYCQQSFEDPLTFGQGTKLEIKR and report it.
## Result 0.826 ng/mL

## Task Field request: IC50 | item: H5L11 (antibody, human IgG1, kappa, V domains shown, from the HRP00049 mutant library; also called 9-2 H5 and 9-2 L11) VH: QVQLQESGPGLVKPSQTLSLTCTVSGGSISDGSAYWSWIRQHPGKGLEYIGFISRAGSTYNTPSLKGRVTISRDTSKNQFSLKLSSVTAADTAVYYCARSGGWLAPFDYWGRGTLVTVSS VL: DIVMTQSPDSLAVSLGERATINCKSSQSLFYHSNQKHSLAWYQQKPGQPPKLLIYGASTRESGVPDRFSGSGSGTDFTLTISSLQAEDVAVYYCQQYYGYPYTFGGGTKVEIKR
## Result 1.45 ng/mL

## Task Look at this binder and give its reported IC50. H6L11 (antibody, human IgG1, kappa, V domains shown, also called 9-2 H6 and 9-2 L11) VH: QVQLQESGPGLVKPSQTLSLTCTVSGGSISNDYWTWIRQHPGKGLEYIGFISRAGSTYNTPSLKGRVTISRDTSKNQFSLKLSSVTAADTAVYYCARSGGWLAPFDYWGRGTLVTVSS VL: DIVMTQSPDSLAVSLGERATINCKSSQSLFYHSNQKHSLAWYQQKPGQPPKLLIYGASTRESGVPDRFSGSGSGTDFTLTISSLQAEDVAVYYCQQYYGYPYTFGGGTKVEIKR
## Result 1.69 ng/mL

## Task Entry under review: H18L61 (antibody, human IgG1, kappa, V domains shown, also called 24D5 H18 and 24D5 L61) VH: QVQLVQSGAEVKKPGASVKVSCKASGYTFTSYWMHWVRQAPGQGLEWMGRISPSSGMAVYNEKFKNRVTMTRDTSTSTVYMELSSLRSEDTAVYYCARGGSSYDYFDYWGQGTTVTVSS VL: DIVLTQSPASLAVSPGQRATITCRASESVSIHGTHLMHWYQQKPGQPPKLLIYAASNLESGVPARFSGSGSGTDFTLTINPVEAEDTANYYCQQSFEDPLTFGQGTKLEIKR . Reported IC50?
## Result 1.38 ng/mL
